# target-desc: Dopamine receptor (Bos taurus) (UniProt Q95136+P20288)
# assay-summary: Compound was tested for enhancement of the binding of [3H]-ADTN to dopamine receptors at concentration of 10 nM
# Assay type: protein assay
Square brackets hold non-standard residues; d marks the D form. Peptide text beside a SMILES is read from it. pGlu = O=C1CC[C@@H](C(=O)O)N1; Pip = O=C(O)[C@@H]1CCCCN1; Thz = O=C(O)[C@@H]1CSCN1; Aze = O=C(O)[C@@H]1CCN1
Overview of reported Enhancement across a group of compounds:
Provide only the numeric value, understood in %.

The cases that follow already have their Enhancement on record.
compound	property-label	endpoint-result
CC(C)C[C@H](NC(=O)[C@@H]1CCN1)C(=O)NCC(N)=O (H-[Aze]-Leu-Gly-NH2)	Enhancement	40
CC(C)C[C@H](NC(=O)[C@H]1C=CCN1)C(=O)NCC(N)=O	Enhancement	13
CC(C)C[C@H](NC(=O)[C@@H]1C=CCN1)C(=O)NCC(N)=O	Enhancement	40
CC(C)C[C@H](NC(=O)[C@@H]1CCCN1)C(=O)NCC(N)=O (stereo in doubt; 1)	Enhancement	28
CC(C)C[C@H](NC(=O)[C@@H]1CCC(=O)N1)C(=O)NCC(N)=O ([pGlu]-Leu-Gly-NH2)	Enhancement	26.5

Inquiry: Field: Enhancement (Dopamine receptor (Bos taurus) (UniProt Q95136+P20288)). Entry: CC(C)C[C@H](NC(=O)[C@@H]1CSCN1)C(=O)NCC(N)=O (H-[Thz]-Leu-Gly-NH2)
Reply text: 8.5

Inquiry: Field: Enhancement (Dopamine receptor (Bos taurus) (UniProt Q95136+P20288)). Entry: CC(C)C[C@H](NC(=O)[C@@H]1CCCCN1)C(=O)NCC(N)=O (H-[Pip]-Leu-Gly-NH2)
Reply text: 38.7

Inquiry: Field: Enhancement (Dopamine receptor (Bos taurus) (UniProt Q95136+P20288)). Entry: CC(C)C[C@H](NC(=O)[C@@H]1CCCN1)C(=O)NCC(N)=O (stereo in doubt; 2)
Reply text: 25

Data credit: ChEMBL document CHEMBL1123255
